- assay: Drug-drug interaction study with itraconazole (CYP3A4 inhibitor): sotorasib plasma PK in healthy subjects
- measurement.context: human, in vivo, po, 360 mg
experimental.readout: Tmax (min)
Numbers only; they are read as min.

Which Tmax is reported for this molecule? C=CC(=O)N1CCN(c2nc(=O)n(-c3c(C)ccnc3C(C)C)c3nc(-c4c(O)cccc4F)c(F)cc23)[C@@H](C)C1 (atropisomer, axis not shown; (M)) [Sotorasib]
30.6

###

- assay: Drug-drug interaction study with rifampin (CYP3A4 inducer): sotorasib plasma PK in healthy subjects
- Assay type: in vivo, human
- measurement.context: human, plasma, 960 mg, 960 mg sotorasib + 600 mg rifampin on day 18 (Test), multiple daily dosing of rifampin; read-out: AUClast (GLSM)
experimental.readout: AUC(0-t) (ng·h/mL)
Numbers only; they are read as ng·h/mL.

Which AUC(0-t) is reported for this compound? C=CC(=O)N1CCN(c2nc(=O)n(-c3c(C)ccnc3C(C)C)c3nc(-c4c(O)cccc4F)c(F)cc23)[C@@H](C)C1 (atropisomer, axis not shown; (M))
12300
